target: Cannabinoid receptor 2 (Homo sapiens); assay: Agonist activity at human CB2 receptor assessed as inhibition of forskolin-induced increase in intracellular cAMP relative to CP-55940; type: functional, cell-based
Sequence (P34972 whole entry): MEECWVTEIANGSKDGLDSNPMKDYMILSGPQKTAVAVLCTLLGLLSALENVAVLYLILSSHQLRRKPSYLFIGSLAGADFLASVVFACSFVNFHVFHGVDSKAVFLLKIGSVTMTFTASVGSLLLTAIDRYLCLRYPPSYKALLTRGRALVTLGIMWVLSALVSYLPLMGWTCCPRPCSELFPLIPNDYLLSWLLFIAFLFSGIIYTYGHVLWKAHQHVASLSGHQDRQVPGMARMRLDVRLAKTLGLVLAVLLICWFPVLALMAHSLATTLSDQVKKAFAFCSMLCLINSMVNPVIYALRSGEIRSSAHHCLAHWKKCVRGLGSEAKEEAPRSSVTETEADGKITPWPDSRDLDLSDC
Mark 0 (no) for Emax values under 90%, and 1 (yes) for everything at or above.

Q) Identify whether the reported Emax of the following molecule is 90% or greater: Fc1ccc(-c2noc(C3CCN(c4cnc5ccc(Cl)cc5c4)CC3)n2)c(Cl)c1
A) 1 (yes)

New cases:
Q) Can Fc1ccc(-c2noc(C[C@@H]3CCN(c4cnc5ccccc5c4)C3)n2)c(Cl)c1 be said to have Emax at or above 90%?
A) 0 (no)

Q) Same thing, different molecule: Fc1ccc(-c2noc([C@H]3C[C@@H]3CNc3cnc4ccccc4c3)n2)c(Cl)c1 (racemic)
A) 0 (no)

Q) Next molecule up: O=C(CCc1nc(-c2ccc(F)cc2Cl)no1)Nc1cnc2ccccc2c1
A) 1 (yes)

Q) Subsequent entry: Fc1ccc(-c2noc(C3CCN(c4cnc5ccccc5c4)CC3)n2)c(Cl)c1
A) 1 (yes)

Q) Try this molecule next: CC(C)(CCc1nc(-c2ccc(F)cc2Cl)no1)Nc1cnc2ccccc2c1
A) 1 (yes)

Every entry's value here was drawn from ChEMBL document CHEMBL1155906.
